molecular target: Human ACC2 (Homo sapiens); construct: made in house; host or cells: SF-9 insect cells (baculovirus, pFAST-BacHTa); assay: in vitro enzymatic ACC activity assay (malachite green, absorbance at 620 nm), ACC2; format: biochemical; details: recombinant His-tagged human ACC2, 6.4 μg/mL; same method as ACC1
Sequence (O00763 117-2458 limits assumed): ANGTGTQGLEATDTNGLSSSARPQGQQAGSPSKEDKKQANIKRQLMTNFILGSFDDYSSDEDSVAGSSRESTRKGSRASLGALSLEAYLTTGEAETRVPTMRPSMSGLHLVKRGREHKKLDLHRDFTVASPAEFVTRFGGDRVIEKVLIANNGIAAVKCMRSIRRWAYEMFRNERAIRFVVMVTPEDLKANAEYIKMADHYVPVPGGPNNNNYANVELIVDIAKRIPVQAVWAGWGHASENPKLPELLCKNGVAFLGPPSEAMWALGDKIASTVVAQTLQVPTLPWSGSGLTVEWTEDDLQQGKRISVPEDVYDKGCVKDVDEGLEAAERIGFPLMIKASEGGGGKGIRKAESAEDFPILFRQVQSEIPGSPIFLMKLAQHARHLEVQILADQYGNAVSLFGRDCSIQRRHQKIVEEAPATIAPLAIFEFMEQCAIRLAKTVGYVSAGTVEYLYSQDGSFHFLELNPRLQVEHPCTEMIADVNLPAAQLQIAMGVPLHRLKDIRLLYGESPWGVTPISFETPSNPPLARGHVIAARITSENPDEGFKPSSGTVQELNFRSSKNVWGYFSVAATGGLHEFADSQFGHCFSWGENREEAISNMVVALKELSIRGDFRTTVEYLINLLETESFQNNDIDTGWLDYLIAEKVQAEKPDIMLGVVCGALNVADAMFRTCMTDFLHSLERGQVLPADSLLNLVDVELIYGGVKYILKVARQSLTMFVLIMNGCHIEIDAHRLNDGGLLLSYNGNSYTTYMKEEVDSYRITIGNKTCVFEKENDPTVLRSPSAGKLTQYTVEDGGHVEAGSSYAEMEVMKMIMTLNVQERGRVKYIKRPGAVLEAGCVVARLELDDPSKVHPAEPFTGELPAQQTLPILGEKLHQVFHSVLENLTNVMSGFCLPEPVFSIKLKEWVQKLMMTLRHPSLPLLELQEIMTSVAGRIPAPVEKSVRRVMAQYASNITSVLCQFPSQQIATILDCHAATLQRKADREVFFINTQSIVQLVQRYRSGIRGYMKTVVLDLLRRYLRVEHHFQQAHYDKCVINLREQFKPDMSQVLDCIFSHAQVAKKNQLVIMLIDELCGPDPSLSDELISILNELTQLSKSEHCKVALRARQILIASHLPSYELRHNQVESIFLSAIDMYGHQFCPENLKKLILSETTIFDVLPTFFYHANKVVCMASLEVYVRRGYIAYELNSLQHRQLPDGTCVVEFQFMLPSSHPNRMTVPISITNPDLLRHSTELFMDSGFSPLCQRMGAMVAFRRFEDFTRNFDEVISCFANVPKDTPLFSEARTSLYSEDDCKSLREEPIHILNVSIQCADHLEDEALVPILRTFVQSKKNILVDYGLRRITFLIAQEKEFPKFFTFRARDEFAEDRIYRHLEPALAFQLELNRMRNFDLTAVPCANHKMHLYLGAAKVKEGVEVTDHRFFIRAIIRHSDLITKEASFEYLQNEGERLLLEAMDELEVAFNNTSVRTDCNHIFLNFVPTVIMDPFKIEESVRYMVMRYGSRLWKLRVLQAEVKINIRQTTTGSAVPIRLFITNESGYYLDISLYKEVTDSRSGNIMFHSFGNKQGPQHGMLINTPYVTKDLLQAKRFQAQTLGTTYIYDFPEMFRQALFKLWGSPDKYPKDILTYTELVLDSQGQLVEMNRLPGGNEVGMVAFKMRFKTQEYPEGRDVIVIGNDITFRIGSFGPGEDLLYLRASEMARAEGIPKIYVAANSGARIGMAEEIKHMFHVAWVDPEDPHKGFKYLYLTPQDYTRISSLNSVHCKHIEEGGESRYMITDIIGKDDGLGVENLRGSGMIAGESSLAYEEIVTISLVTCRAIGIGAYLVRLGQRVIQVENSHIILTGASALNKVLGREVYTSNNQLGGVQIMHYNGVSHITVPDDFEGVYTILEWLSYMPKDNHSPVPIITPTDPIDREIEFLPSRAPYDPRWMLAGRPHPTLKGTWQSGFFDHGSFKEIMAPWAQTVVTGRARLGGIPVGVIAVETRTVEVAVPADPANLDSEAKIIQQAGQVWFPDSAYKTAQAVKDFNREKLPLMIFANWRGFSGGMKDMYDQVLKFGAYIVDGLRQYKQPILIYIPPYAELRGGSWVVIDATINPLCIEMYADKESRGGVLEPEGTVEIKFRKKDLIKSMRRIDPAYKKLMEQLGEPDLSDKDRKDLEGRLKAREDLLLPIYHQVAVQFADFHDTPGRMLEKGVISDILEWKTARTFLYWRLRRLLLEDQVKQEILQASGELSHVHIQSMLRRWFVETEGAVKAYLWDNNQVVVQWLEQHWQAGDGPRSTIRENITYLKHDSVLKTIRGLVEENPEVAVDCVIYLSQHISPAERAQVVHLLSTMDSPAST
Readout: IC50

Molecule Smiles	System Name	Readout	Measured Value
CCCCC1=NC2(CCN(C(=O)c3c(NC(=O)NCC)sc4ccccc34)CC2)C(=O)N1	Human ACC2 (Homo sapiens)	IC50	< 1 µM
CCNC(=O)Nc1sc2ccccc2c1C(=O)N1CCC2(CC1)N=CNC2=O	Human ACC2 (Homo sapiens)	IC50	> 10 µM
CCNC(=O)Nc1sc2ccccc2c1C(=O)N1CCC2(CC1)N=C(COC1CCCCC1)NC2=O	Human ACC2 (Homo sapiens)	IC50	< 1 µM
CCNC(=O)Nc1sc2ccccc2c1C(=O)N1CCC(N)(C(N)=O)CC1	Human ACC2 (Homo sapiens)	IC50	> 10 µM
CCNC(=O)Nc1sc2ccccc2c1C(=O)N1CCC2(CC1)N=C(CSC)NC2=O	Human ACC2 (Homo sapiens)	IC50	1 to 10 µM
CCNC(=O)Nc1sc2ccccc2c1C(=O)N1CCC2(CC1)N=C(Cn1ccccc1=O)NC2=O	Human ACC2 (Homo sapiens)	IC50	1 to 10 µM
CCNC(=O)Nc1sc2ccccc2c1C(=O)N1CCC2(CC1)N=C(Cn1cc(CO)nn1)NC2=O	Human ACC2 (Homo sapiens)	IC50	1 to 10 µM
CCNC(=O)Nc1sc2c(OC)cccc2c1C(=O)N1CCC2(CC1)N=C(CCl)NC2=O	Human ACC2 (Homo sapiens)	IC50	1 to 10 µM
CCNC(=O)Nc1sc2ccccc2c1C(=O)N1CCC2(CC1)N=C(CN1C(=O)CCC1=O)NC2=O	Human ACC2 (Homo sapiens)	IC50	> 10 µM
CCCCC1=NC2(CCN(C(=O)c3c(NC(=O)NCC)sc4c(OC)cccc34)CC2)C(=O)N1	Human ACC2 (Homo sapiens)	IC50	< 1 µM
CCNC(=O)Nc1sc2c(OC)cccc2c1C(=O)N1CCC2(CC1)N=C(C(C)C)NC2=O	Human ACC2 (Homo sapiens)	IC50	< 1 µM
CCNC(=O)Nc1sc2ccccc2c1C(=O)N1CCC2(CC1)N=C(COc1ccccc1C(N)=O)NC2=O	Human ACC2 (Homo sapiens)	IC50	< 1 µM
CCNC(=O)Nc1sc2ccccc2c1C(=O)N1CCC2(CC1)N=C(Cn1cc(C(C)(C)C)nn1)NC2=O	Human ACC2 (Homo sapiens)	IC50	< 1 µM
CCNC(=O)Nc1sc2c(OC)cccc2c1C(=O)N1CCC2(CC1)NC(c1ccccc1)=NC2=O	Human ACC2 (Homo sapiens)	IC50	< 1 µM
CCNC(=O)Nc1sc2c(OC)cccc2c1C(=O)N1CCC2(CC1)N=C(COC1CCCCC1)NC2=O	Human ACC2 (Homo sapiens)	IC50	< 1 µM
CCNC(=O)Nc1sc2ccccc2c1C(=O)N1CCC2(CC1)N=C(Cn1cc(CN)nn1)NC2=O	Human ACC2 (Homo sapiens)	IC50	> 10 µM
